Cited source: patent US20240262795A1

Test System: Ba/F3 cell lines stably expressing human FLT3-ITD-F691L (Homo sapiens, UniProt P36888, F691L, cells depend on it, form not given)
Construct: Ba/F3-FLT3-ITD-F691L Relative IC50
Assay Summary: FLT3 mutant assay, cell viability, Ba/F3-FLT3-ITD-F691L
Format: cell-based, mouse
Measurement Context: IC50 (3 days), CellTiter-Glo; read-out: Ba/F3-FLT3-ITD-F691L Relative IC50
Attribute Measured: GI50

Q: Consider the molecule shown here: `CCc1nc(Nc2cccc([C@@H](C)CNC(=O)CN(C)C(=O)/C=C/CN3CCC3)c2)c(C(N)=O)nc1CC` What is its recorded GI50?
Ans: 1 to 10 nM

Q: For the molecule `CCc1nc(C(N)=O)c(Nc2cccc(CCNC(=O)[C@H](C)N(C)C(=O)/C=C/CN(C)C)c2)nc1N(C)C(C)C` , what GI50 is on record?
Ans: 1 to 10 nM

Q: Which GI50 is reported for this molecule? `CCc1nc(C(N)=O)c(Nc2cccc(CCNC(=O)[C@H](C)N(C)C(=O)/C=C/CN(C)C)c2)nc1NC(C)C`
Ans: 1 to 10 nM

Q: What value of GI50 has been reported for the following molecule? `CCc1nc(C(N)=O)c(Nc2cc(F)cc(CCNC(=O)CN(C)C(=O)/C=C/CN3CCC3)c2)nc1C1CC1`
Ans: 10 to 100 nM

###

Test System: FLT3-ITD (Homo sapiens, UniProt P36888, DUP595-601)
Assay Summary: FLT3-ITD Lance Ultra TR-FRET kinase assay
pIC50: −log10 of the molar value.
Attribute Measured: pIC50

Past entries and their recorded results:
{"columns": ["Compound", "Attribute Measured", "Recorded Measurement"],
 "data": [
  ["CCc1nc(C(N)=O)c(Nc2cccc(CCNC(=O)[C@H](C)NC(=O)/C=C/CN(C)C)c2)nc1N(C)C(C)C [Compound 502]", "pIC50", "9.30 to 9.70"],
  ["C=CC(=O)N(C)[C@@H](C)C(=O)NCCc1cccc(Nc2nc(N(C)C(C)C)c(CC)nc2C(N)=O)c1 [Compound 315]", "pIC50", "9.00 to 9.30"],
  ["CCc1nc(C(N)=O)c(Nc2cccc(CCNC(=O)[C@H](C)N(C)C(=O)/C=C/CNC)c2)nc1N(C)C(C)C [Compound 307]", "pIC50", "9.30 to 9.70"],
  ["C=CC(=O)Nc1cc(Nc2nc(NC3CCOCC3)c(CC)nc2C(N)=O)ccc1N1CCC(N2CCN(C)CC2)CC1 [Compound C-2, reference compound]", "pIC50", "9.00 to 9.30"],
  ["Cc1nc(C(N)=O)c(Nc2cccc(CCNC(=O)[C@H](C)N(C)C(=O)/C=C/CN(C)C)c2)nc1C(C)C [Compound 305]", "pIC50", "< 9.00"],
  ["CCc1nc(C(N)=O)c(Nc2cccc([C@@H](C)CNC(=O)CN(C)C(=O)/C=C/CN(C)C)c2)nc1C [Compound 321]", "pIC50", "< 9.00"]
]}

Now consider the entry below.
Q: Value wanted: pIC50 (FLT3-ITD (Homo sapiens, UniProt P36888, DUP595-601)) of entry Cc1nc(C(N)=O)c(Nc2cc(F)cc(CCNC(=O)[C@H](C)N(C)C(=O)/C=C/CN(C)C)c2)nc1N(C)C [Compound 239]
Ans: 9.70 to 10.00

###

Test System: Ba/F3 cell lines stably expressing human FLT3-ITD-D835Y (Homo sapiens, UniProt P36888, D835Y, cells depend on it, form not given)
Construct: Ba/F3-FLT3-ITD-D835Y Relative IC50
Assay Summary: FLT3 mutant assay, cell viability, Ba/F3-FLT3-ITD-D835Y
Assay type: cell-based, mouse
Measurement Context: IC50 (3 days), CellTiter-Glo; read-out: Ba/F3-FLT3-ITD-D835Y Relative IC50
Method: Activity of compounds on FLT3 activating mutations were assessed using Ba/F3 cell lines (mouse pro-B cell line) stably expressing human FLT3-ITD, FLT3-ITD-D835Y or FLT3-ITD-F691L. […] For use in compound testing, cells in exponential growth phase were harvested, counted, and resuspended at the required cell density. […] Inhibition rate (IR) of the tested compounds was determined by the following formula: IR (%)=(1−(RLU compound−RLU blank)/(RLU control−RLU blank))*100%. […]
Collected GI50 values appear next to each entry.

{"columns": ["Molecule", "Recorded Measurement"],
 "data": [
  ["CCc1nc(C(N)=O)c(Nc2cccc([C@@H](C)CNC(=O)CN(C)C(=O)/C=C/CN(C)C)c2)nc1C1CC1 [Compound 504]", "10 to 100 nM"]
]}

Q: I am curious: what GI50 value has been reported for CCc1nc(C(N)=O)c(Nc2cccc(CCNC(=O)CN(C)C(=O)/C=C/CN3CCC3)c2)nc1N(C)CC [Compound 516A] ?
Ans: 10 to 100 nM

Q: Would you kindly share the measured GI50 for CCc1nc(C(N)=O)c(Nc2cccc(CCNC(=O)[C@H](C)N(C)C(=O)/C=C/CN(C)C)c2)nc1N(C)C(C)C [Compound 204] ?
Ans: 1 to 10 nM

Q: Which GI50 value is on record for CCc1nc(C(N)=O)c(Nc2cccc(CCNC(=O)CN(C)C(=O)/C=C/CN(C)C)c2)nc1N(C)CC [Compound 252] ?
Ans: 1 to 10 nM

Q: Consider the molecule CCOc1nc(Nc2cccc(CCNC(=O)CN(C)C(=O)/C=C/CN3CCC3)c2)c(C(N)=O)nc1CC [Compound 602] and give its measured GI50.
Ans: 10 to 100 nM

Q: Give its GI50 value. Item: CCc1nc(C(N)=O)c(Nc2cccc(CCNC(=O)[C@H](C)N(C)C(=O)/C=C/CNC)c2)nc1N(C)C(C)C [Compound 307]
Ans: 10 to 100 nM

###

Test System: FLT3-ITD (Homo sapiens, UniProt P36888, DUP595-601)
Construct: purchased Signalchem F-12-12CG-10
Assay Summary: FLT3-ITD Lance Ultra TR-FRET kinase assay
Format: biochemical
Source text: High throughput 384-well Lance Ultra TR-FRET based kinase assays were established for the WT FLT3 and FLT3-ITD enzymes and employed a ULight-labeled peptide […] and FLT3 proteins labelled with Eu-conjugated antibody (acceptor) (WuXi Aptec). […] Assay plates were read on a Perkin Elmer Envision reader at two wavelengths (665/615) and the ratio of […] calculated. Data was expressed as % of inhibition relative to the vehicle control and calculated as follows: […]
pIC50: −log10 of the molar value.
pIC50: recorded values

Example cases with answers are listed next.
{"columns": ["Compound", "pIC50"],
 "data": [
  ["C=CC(=O)N(C)CC(=O)NCCc1cccc(Nc2nc(N(C)CC)c(CC)nc2C(N)=O)c1", "≥ 10.00"],
  ["CCc1nc(C(N)=O)c(Nc2cccc(CCNC(=O)[C@H](C)N(C)C(=O)/C=C/CN(C)C)c2)nc1NC(C)C", "9.70 to 10.00"],
  ["CCc1nc(C(N)=O)c(Nc2ccnc(CCNC(=O)[C@H](C)N(C)C(=O)/C=C/CN(C)C)c2)nc1N(C)C(C)C", "9.30 to 9.70"]
]}

Q: Using the record for `C=CC(=O)N(C)[C@@H](C)C(=O)NCCc1cccc(Nc2nc(N(C)C)c(CC)nc2C(N)=O)c1` , report its pIC50.
Ans: 9.70 to 10.00

Q: Look at this compound and give its reported pIC50. `CCc1nc(C(N)=O)c(Nc2cc(CCNC(=O)[C@H](C)N(C)C(=O)/C=C/CN(C)C)cc(OC)c2)nc1N(C)C`
Ans: 9.70 to 10.00

Q: Which pIC50 value belongs to `CCc1nc(C(N)=O)c(Nc2cccc(CCNC(=O)[C@H](C)N(C)C(=O)/C=C/CN(C)C)c2)nc1N(C)CC` ?
Ans: 9.70 to 10.00

Q: I am curious: what pIC50 value has been reported for `Cc1nc(C(N)=O)c(Nc2cccc(CCNC(=O)CN(C)C(=O)/C=C/CN(C)C)c2)nc1N(C)C(C)C` ?
Ans: 9.30 to 9.70

Q: Which pIC50 value belongs to `CCc1nc(C(N)=O)c(Nc2cccc(CCNC(=O)[C@H](C)N(C)C(=O)/C=C/CN3CCC3)c2)nc1N(C)C` ?
Ans: 9.30 to 9.70

Q: Please look up its pIC50: `CCc1nc(Nc2cccc([C@@H](C)CNC(=O)CN(C)C(=O)/C=C/CN3CCC3)c2)c(C(N)=O)nc1CC`
Ans: 9.00 to 9.30

Q: Given `CCc1nc(C(N)=O)c(Nc2cccc(CCNC(=O)[C@H](C)N(C)C(=O)/C=C/CNC)c2)nc1NC(C)C` , state its recorded pIC50.
Ans: 9.30 to 9.70

Q: For `CCc1nc(C(N)=O)c(Nc2ccnc(CCNC(=O)CN(C)C(=O)/C=C/CN(C)C)c2)nc1N(C)CC` , what is its reported pIC50?
Ans: 9.30 to 9.70

Q: Requested read-out: pIC50. Entry: `CCc1nc(C(N)=O)c(Nc2cccc(CCNC(=O)[C@H](C)N(C)C(=O)/C=C/CN(C)C)c2)nc1N(C)C(C)C`
Ans: 9.70 to 10.00

Q: Look up pIC50: `CCc1nc(C(N)=O)c(Nc2ccnc(CCNC(=O)[C@H](C)N(C)C(=O)/C=C/CN(C)C)c2)nc1C1CC1`
Ans: 9.00 to 9.30

Q: Returns the measured pIC50 for the input compound. Input: C=CC(=O)Nc1cc(Nc2nc(N[C@H]3CC[C@@](C)(O)CC3)c(CC)nc2C(N)=O)ccc1C [Compound C-3, reference compound]
Ans: < 9.00

Q: Entry `C=CC(=O)N(C)CC(=O)NCCc1cccc(Nc2nc(CC(C)C)c(CC)nc2C(N)=O)c1` : reported pIC50 = ?
Ans: < 9.00

Q: Tell me the measured pIC50 of `CCc1nc(C(N)=O)c(Nc2cc(F)cc(CCNC(=O)[C@H](C)N(C)C(=O)/C=C/CN(C)C)c2)nc1C1CC1` , please.
Ans: 9.30 to 9.70

Q: If you can, please state the reported pIC50 value of `CCOc1nc(Nc2cccc(CCNC(=O)CN(C)C(=O)/C=C/CN3CCC3)c2)c(C(N)=O)nc1CC` .
Ans: 9.30 to 9.70
